Molecular target: BRD4 (BD1) (Homo sapiens)
Construct: with relatively long constructs also being possible, preferably amino acids 44-168
Test: Binding assay BRD4/acetylated peptide H4 (TR-FRET protein-protein interaction assay)
Outcome Measure: IC50 (µM)

[[record]]
compound = "CNC(=O)N1N=C(c2ccc(Cl)cc2)c2ccc(-c3ccncc3)cc2CC1C (racemic)"
study_target = "BRD4 (BD1) (Homo sapiens)"
output_unit = "µM"
readout_value = 4.5

[[record]]
compound = "CNC(=O)N1N=C(c2ccc(N3CCNC(=O)C3)cc2)c2cc(OC)c(OC)cc2CC1C (racemic)"
study_target = "BRD4 (BD1) (Homo sapiens)"
output_unit = "µM"
readout_value = 0.06

[[record]]
compound = "CNC(=O)N1N=C(c2ccc(N3CCC(C)(O)CC3)cc2)c2cc(OC)c(OC)cc2C[C@H]1C"
study_target = "BRD4 (BD1) (Homo sapiens)"
output_unit = "µM"
readout_value = 0.27

[[record]]
compound = "CNC(=O)N1N=C(c2ccc(-c3cccc(S(=O)(=O)NC)c3)cc2)c2cc(OC)c(OC)cc2CC1C (racemic)"
study_target = "BRD4 (BD1) (Homo sapiens)"
output_unit = "µM"
readout_value = 0.04


1. CNC(=O)N1N=C(c2ccc(-c3cccnc3Cl)cc2)c2cc(OC)c(OC)cc2C[C@H]1C
2. CNC(=O)N1N=C(c2ccc(-c3ccccc3OC)cc2)c2cc(OC)c(OC)cc2CC1C (racemic)
Prompt: Compare 1 and 2 and name the one whose reported IC50 is smaller. Response format: the label of the selected entry.
Completion: 2
(2: 0.07 µM, 1: 0.78 µM)
